Target: T1, corticotropin releasing factor 2 receptor
T1 sequence (Q13324 whole entry, species assumed, looked up): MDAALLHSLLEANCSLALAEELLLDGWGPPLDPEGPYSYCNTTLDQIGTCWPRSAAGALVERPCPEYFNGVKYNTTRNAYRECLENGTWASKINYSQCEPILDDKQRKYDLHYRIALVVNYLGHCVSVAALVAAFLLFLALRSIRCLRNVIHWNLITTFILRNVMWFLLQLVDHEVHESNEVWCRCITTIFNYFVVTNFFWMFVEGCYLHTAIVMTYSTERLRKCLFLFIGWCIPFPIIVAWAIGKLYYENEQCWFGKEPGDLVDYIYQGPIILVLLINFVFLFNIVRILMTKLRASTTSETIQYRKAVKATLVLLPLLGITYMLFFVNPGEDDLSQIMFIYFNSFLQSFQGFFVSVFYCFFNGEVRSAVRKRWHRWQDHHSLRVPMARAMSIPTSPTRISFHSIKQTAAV
Experiment: cell-based or functional assay
Ends that are not written are not given here.
CRF2R Emax % overview
Reply numerically in %, unit not repeated.

Known CRF2R Emax % results, listed for orientation:
BINDER: Ac-IVLSLDVPIGLLQILLEQARARAAREQATTNARILARV-NH2 [SEQ ID NO 354]
REPORTED METRIC: CRF2R Emax %
UNIT: %
QUANTITATIVE READOUT: 100
//
BINDER: ZGPPISIDLPQILLRKVIEIEKQEKEKQQAANNALLLATI (C-terminal amide) [SEQ ID NO 299]
REPORTED METRIC: CRF2R Emax %
UNIT: %
QUANTITATIVE READOUT: 71.5

Next, consider the following binder.
**Query** What value of CRF2R Emax % has been recorded for this entry: IVLSLDVVIGLLQILLEQARARAAREQATTNARILARV-NH2 [SEQ ID NO 214]
**Result** 60
